# Study Target: SARS-CoV-2 Main Protease (SARS-CoV-2)
# Condition Parameters: 50.0 µM
# if value of inhibition reaches 20%, tag TRUE; if it stays below, tag FALSE

Please review the entries below; each comes with its answer.
>>> group("CCC(NC(=O)C(C)n1cncn1)c1ccccc1OCC(=O)N1CCCC1 (stereo not given)")
"FALSE"
>>> group("Cc1ccncc1NC(=O)Cc1ccccc1")
"FALSE"
>>> group("Cc1cc(C)cc(CS(=O)(=O)N[C@@]23COC[C@@H]2C3)c1 (stereo in doubt)")
"FALSE"
>>> group("O=C1Nc2cc(Br)ccc2C1=O")
"TRUE"
>>> group("O=C1C(=O)N(Cc2ccc(Br)cc2)c2ccccc21")
"TRUE"
>>> group("Cc1ccnc(C)c1NC(=O)C1CC2CC2C1 (stereo not given)")
"FALSE"
>>> group("Cc1ccncc1N(C)C(=O)[C@@H]1C[C@H]1CF (stereo in doubt)")
"FALSE"
>>> group("C=CC(=O)N(c1ccc(C(C)(C)C)cc1)C(C(=O)NCCc1cccc(F)c1)c1cncc(C)c1 (stereo not given)")
"FALSE"

# input for lookup
Query :: Quick check, inhibition >= 20%? CS(=O)(=O)N1CCc2ccc(CN3CCN(C(=O)CCl)CC3)cc2C1
Result :: TRUE

The measurements presented in this section are drawn from the COVID Moonshot data (paper PMC11187573).
